Just for reference, the supplement of paper PMC12350171 is where these values come from.

system: P. vulgatus WT; test: growth AUC normalised to DMSO control (median) (fraction of control); higher = less growth inhibition, active = hit call of the paper; settings: 20 µM;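 active = normalised median growth AUC below 0.1 of DMSO control; inactive = AUC 0.1 or higher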;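 further: active when median AUC fell below 0.1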
Structures can show the parent of a compound that is named as a salt.
Classes used: active, inactive

[
  {
    "compound": "CC(C)(N)Cc1ccccc1 [Phentermine hydrochloride]",
    "group.label": "inactive"
  },
  {
    "compound": "COc1ccc(OC)c(C(O)C(C)N)c1 (stereo not given) [Methoxamine hydrochloride]",
    "group.label": "active"
  },
  {
    "compound": "COc1cc([C@@H]2c3cc4c(cc3[C@H](O)[C@H]3COC(=O)[C@H]23)OCO4)cc(OC)c1OC",
    "group.label": "inactive"
  },
  {
    "compound": "CCC1(C)CC(=O)NC(=O)C1 [Bemegride]",
    "group.label": "inactive"
  },
  {
    "compound": "CNC(=O)Oc1ccc2c(c1)[C@]1(C)CCN(C)[C@@H]1N2C [Eserine hemisulfate salt]",
    "group.label": "inactive"
  }
]
